In this section we review reported IC50 values for a set of compounds.
Target Of Assay: LC3B (Homo sapiens)
Assay: Fluorescence Polarization (FP) Assay: displacement of FITC-labeled peptide from GST-LC3B
Type: binding
Details: Fluorescence Polarization assay; GST-LC3B 180 nM, FITC-labeled peptide 18 nM, 25° C.; read-out: IC50

Please review the entries below; each comes with its answer.
Compound | IC50
COc1cc2ncnc(C3CC(=O)C(=CNCCN4CCN(CCO)CC4)C(=O)C3)c2cc1OC (stereo not drawn) | 15 to 100 µM
CN(C)CCNC=C1C(=O)CC(c2c(C(F)(F)F)ccc(Cl)c2F)CC1=O (stereo not drawn) | < 3 µM
COc1ccc(C2CC(=O)C(=CO)C(=O)C2)c(OC)c1 (stereo not drawn) | 3 to 15 µM
COc1ccc(CNC=C2C(=O)CC(c3ccccc3)CC2=O)cc1 (stereo not drawn) | 100 to 1000 µM
CN(C)CCNC=C1C(=O)CC(c2cc(Cl)cc(Cl)c2Cl)CC1=O (stereo not drawn) | < 3 µM

The compound CCN(CC)CCCC(C)N/C=C1\C(=O)Nc2cc(Cl)ccc2C1=O (stereo not drawn) , when measured on LC3B (Homo sapiens), yielded IC50 of 3 to 15 µM

Tested on LC3B (Homo sapiens), the item CN(C)CCNC=C1C(=O)CC(C(=O)Nc2ccc(-c3ccccc3)cc2)CC1=O (stereo not drawn) showed IC50 equal to < 3 µM

* * *

pIC50 listing for selected molecules.
Target Of Assay: LC3B (Homo sapiens)
Assay: Fluorescence Polarization (FP) Assay: displacement of FITC-labeled peptide from GST-LC3B
Type: binding
Details: Fluorescence Polarization assay; GST-LC3B 180 nM, FITC-labeled peptide 18 nM, 25° C.; read-out: IC50
pIC50: −log10 of the molar value. Where a name gives a salt, the structure may show the parent alone.

Before answering, review these 4 worked examples.
Molecule | pIC50
COCCOc1cc(C2CC(=O)C(=CNCCN3CCN(CCO)CC3)C(=O)C2)ccc1OC (stereo not drawn) [Compound 80] | 4.00 to 4.82
O=C1CC(Cc2ccccc2)C(=O)/C1=C/NCCN1CCN(CCO)CC1 (stereo not drawn) [Compound 115] | 4.82 to 5.52
O=C1CC(c2ccccc2)CC(=O)C1=CNC1CCNCC1 (stereo not drawn) [Compound 140, hydrochloride] | 4.00 to 4.82
O=C1CC(c2ccccc2)NC(=O)C1=CNCCN1CCN(CCO)CC1 (stereo not drawn) [Compound 96] | 3.00 to 4.00

Form field pIC50 for item CN(C)CCNC=C1C(=O)CC(c2ccccc2)C(F)C1=O (stereo not drawn) [Compound 209] on LC3B (Homo sapiens): > 5.52

Form field pIC50 for item COCCOc1ccccc1C1CC(=O)C(=CNCCN2CCN(CCO)CC2)C(=O)C1 (stereo not drawn) [Compound 42] on LC3B (Homo sapiens): 4.82 to 5.52

Entry O=C1CC(c2ccccc2)C(C(=O)N2CCOCC2)C(=O)C1=CNCCN1CCN(CCO)CC1 (stereo not drawn) [Compound 190] under LC3B (Homo sapiens) had pIC50 of 4.00 to 4.82

* * *

The reader will find reported pIC50 values listed item by item below.
Target Of Assay: UniProt:Q9GZQ8
Assay: Fluorescence Polarization (FP) Assay: displacement of FITC-labeled peptide from GST-LC3B
Type: binding
Details: Fluorescence Polarization assay; GST-LC3B 180 nM, FITC-labeled peptide 18 nM, 25° C.; read-out: IC50
pIC50: −log10 of the molar value.

Examples from the recorded data:
Compound | pIC50
O=C1CC(C(F)(F)F)CC(=O)C1=CNCCN1CCN(CCO)CC1 (stereo not drawn) | 4.00 to 4.82
Cc1ccc(C2CC(=O)C(=CNCCN3CCN(S(=O)(=O)c4ccc(C)cc4)CC3)C(=O)C2)cc1 (stereo not drawn) | 3.00 to 4.00
CS(=O)(=O)CCNC=C1C(=O)CC(c2ccccc2)CC1=O (stereo not drawn) | 4.00 to 4.82
O=C1CC(c2cccc3[nH]cc(Cl)c23)CC(=O)C1=CNCCN1CCN(CCO)CC1 (stereo not drawn) | > 5.52

Input O=C1Nc2c(cccc2C(F)(F)F)C(=O)/C1=C/NCCN1CCN(CCO)CC1 . Output pIC50: > 5.52
